Ref: patent US5633277A

Give IC50 for every item shown.
# Test system: human T-cells
# protocolText: Suppression of Human T-Cell Proliferation Assay (mitogen-induced, [3H]-thymidine incorporation)
# Type: cell-based
# conditionContext: Homo sapiens, T-cell; 72 hours incubation; mitogen stimulated; read-out: IC50 (inhibition of [3H]-thymidine incorporation of T-cells by 50%)
Give your result in µM as a bare value.

Give the measured IC50 for `CC(=O)Nc1nc(C)c(S(=O)(=O)N[C@@H](CC(C)C)CN2CCC[C@H]2C(=O)NCCCCc2ccccc2)s1`
2

Give the measured IC50 for `CC(C)C[C@@H](CN1CCC[C@H]1C(=O)NCCCCc1ccccc1)NS(=O)(=O)/C=C/c1ccccc1`
5

Give the measured IC50 for `CC(C)C[C@@H](CN1CCC[C@H]1C(=O)NCCCCc1ccccc1)NS(=O)(=O)CS(C)(=O)=O`
4

Give the measured IC50 for `Cc1ccc(S(=O)(=O)N[C@@H](CC(C)C)CN2CCC[C@H]2C(=O)NCCCCc2ccccc2)cc1`
8

Give the measured IC50 for `CC(C)C[C@@H](CN1CCC[C@H]1C(=O)NCCCCc1ccccc1)NS(C)(=O)=O`
2

Give the measured IC50 for `CC(C)C[C@@H](CN1CCC[C@H]1C(=O)NCCCCc1ccccc1)NS(=O)(=O)c1c(C(C)C)cc(C(C)C)cc1C(C)C`
4

---

# System: human T-cells
# protocolText: Suppression of Human T-Cell Proliferation Assay (mitogen-induced, [3H]-thymidine incorporation)
# Format: cell-based
# conditionContext: Homo sapiens, T-cell; 72 hours incubation; mitogen stimulated; read-out: IC50 (inhibition of [3H]-thymidine incorporation of T-cells by 50%)
Give IC50 for every item shown.
Give your result in µM as a bare value.

Give the measured IC50 for CC(C)C[C@@H](CN1CCC[C@H]1C(=O)NCCCCc1ccccc1)NS(=O)(=O)c1cccs1 [Example 5]
3

Give the measured IC50 for CC(C)C[C@@H](CN1CCC[C@H]1C(=O)NCCCCc1ccccc1)NS(=O)(=O)c1cccc2cccnc12 [Example 3]
5

Give the measured IC50 for CC(C)C[C@@H](CN1CCC[C@H]1C(=O)NCCCCc1ccccc1)NS(=O)(=O)CC12CCC(CC1=O)C2(C)C (single isomer, unassigned) [Example 7]
2

Give the measured IC50 for CC(C)C[C@@H](CN1CCC[C@H]1C(=O)NCCCCc1ccccc1)NS(=O)(=O)c1ccc(-c2ccon2)s1 [Example 8]
1
